src = patent US12630511B2

molecular target: EGFR L858R/T790M/C797S mutant enzyme (Homo sapiens, UniProt P00533, C797S/L858R/T790M); assay: Inhibitory capacity against EGFR L858R/T790M/C797S mutant enzyme (Cisbio HTRF); conditions: HTRF, 1 mM ATP, 37° C. for 2 hours, 7 concentrations
Sequence (P00533 25-1210 T790M/C797S/L858R): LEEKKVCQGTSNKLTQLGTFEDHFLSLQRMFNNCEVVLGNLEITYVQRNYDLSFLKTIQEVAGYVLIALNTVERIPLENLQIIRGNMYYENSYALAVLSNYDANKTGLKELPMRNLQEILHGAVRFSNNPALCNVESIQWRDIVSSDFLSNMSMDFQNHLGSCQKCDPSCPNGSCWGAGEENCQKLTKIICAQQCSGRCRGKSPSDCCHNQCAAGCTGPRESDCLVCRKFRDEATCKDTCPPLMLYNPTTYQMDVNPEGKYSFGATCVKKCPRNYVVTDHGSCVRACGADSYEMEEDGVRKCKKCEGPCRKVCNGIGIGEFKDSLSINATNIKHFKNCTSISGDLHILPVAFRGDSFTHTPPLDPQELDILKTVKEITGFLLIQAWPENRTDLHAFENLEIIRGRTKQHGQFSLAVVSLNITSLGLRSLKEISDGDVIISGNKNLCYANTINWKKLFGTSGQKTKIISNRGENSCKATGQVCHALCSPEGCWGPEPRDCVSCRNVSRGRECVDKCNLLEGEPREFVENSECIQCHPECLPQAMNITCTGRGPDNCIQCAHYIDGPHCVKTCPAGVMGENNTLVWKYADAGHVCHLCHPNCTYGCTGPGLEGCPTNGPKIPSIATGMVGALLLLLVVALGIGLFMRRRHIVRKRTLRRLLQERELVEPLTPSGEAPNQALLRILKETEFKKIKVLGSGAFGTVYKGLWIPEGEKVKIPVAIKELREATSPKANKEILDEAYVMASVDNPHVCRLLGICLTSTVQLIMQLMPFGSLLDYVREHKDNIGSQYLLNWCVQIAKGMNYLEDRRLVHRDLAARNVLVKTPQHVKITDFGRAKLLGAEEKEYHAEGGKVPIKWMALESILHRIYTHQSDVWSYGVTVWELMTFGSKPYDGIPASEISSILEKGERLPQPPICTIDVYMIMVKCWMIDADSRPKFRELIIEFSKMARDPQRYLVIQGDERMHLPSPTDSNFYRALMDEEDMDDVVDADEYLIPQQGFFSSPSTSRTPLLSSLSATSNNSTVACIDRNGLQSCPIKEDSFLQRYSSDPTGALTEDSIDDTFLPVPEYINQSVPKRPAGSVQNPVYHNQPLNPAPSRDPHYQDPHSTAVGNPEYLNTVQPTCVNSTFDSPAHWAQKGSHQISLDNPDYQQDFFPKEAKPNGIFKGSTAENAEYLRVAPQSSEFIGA
pIC50: −log10 of the molar value.
Measurement label: pIC50

(P) NC1CCN(c2ccc(-c3cccc(C(=O)N[C@@H](c4cc5ccccc5[nH]4)c4cc(F)ccc4O)c3)cc2)CC1
(Q) CN1CCN(C2CCN(c3ccc(-c4cccc(C(=O)N[C@@H](c5cc6ccccc6[nH]5)c5cc(F)ccc5O)c4)cc3)CC2)CC1
Prompt: Hi, I'm comparing P with Q and wondering which one has the bigger number for pIC50. Any idea? Select an item and report its label.
Completion: P
